Known Tm of a selection of sequences
# assayOverview: melting temperature; fluorescence melt of hairpins on a sequencing array, two-state fit, raised by 9.35 °C to match UV melts
# testSettings: sodium 0.088 M
Give the quantity in °C, number only.

Here are 6 sequences together with their reported answers.
GCGAGCATTCGC ((((....))))    57.1
GTGCGTGGAAACACGTGC (..((((....))))..)    51.5
GCGTGGCTACGC ((((....))))    58.5
GATCCGCACGCGGATC ((((((....))))))    67.6
GATCTCCACAGAGATC ((((((....))))))    55.7
GCCACTGGAAACAGCGAC (.(.(((....))).).)    26

GET /value?item= GCACGGCGAAAGCTATGC (((..((....))..))) &field=Tm returns 42.1

GET /value?item= GATCAAATAATTGATC ((((((....)))))) &field=Tm returns 34.7

GET /value?item= GACGCCGAAAGGCAAGTC ((((((....)))..))) &field=Tm returns 48.9

----------
# assayOverview: melting temperature; fluorescence melt of hairpins on a sequencing array, two-state fit, raised by 9.35 °C to match UV melts
# testSettings: sodium 0.088 M
measurementName: Tm (°C)
Give the quantity in °C, number only.

Here are 3 sequences together with their reported answers.
GTACACGAAAGTGTCTAC ((((((....)))..)))    35.8
TGTCAGAAATGACA (((((....)))))    40.2
GGAGGCGAAAGCCATTCC ((((((....)))..)))    34.7

Then this sequence:
GET /value?item= GCTTTGCGAAAGCCAGGC ((.(.((....)).).)) &field=Tm returns 38.3

----------
# assayOverview: folding enthalpy; higher = less favourable; fluorescence melt of hairpins on a sequencing array, two-state fit
# testSettings: sodium 0.088 M
Known folding enthalpy of a selection of sequences
Give the quantity in kcal/mol, number only.

Here are 5 sequences together with their reported answers.
GGTGCCGAAAGGCTGACC ((((((....)))..)))    -13.9
GATCCCTACAGGGATC ((((((....))))))    -36.2
GAGCCGACGAAAGTCCTC (((..(((....))))))    -8.43
GATCATTATCATGATC ((((((....))))))    -38.9
GAGGTGGGAAACCACCCC (.(((((....))))).)    -10.7

GET /value?item= GTCTACGAAAGTAAGAC ((((((....))).))) &field=folding enthalpy returns -24.2

GET /value?item= GTCACGGGAAACTGTGGC (.(((.(....).))).) &field=folding enthalpy returns -31.9

GET /value?item= GAAATAGGAAACTATTTC (((((((....))))))) &field=folding enthalpy returns -44.1

GET /value?item= GATCAGGGCGCTGATC ((((((....)))))) &field=folding enthalpy returns -47.4

GET /value?item= GGATGCTCGAAAGAGTCC (((..(((....)))))) &field=folding enthalpy returns -12.1

GET /value?item= GTCTAAGGAAACTTGGAC (((.(((....))).))) &field=folding enthalpy returns -21.9

GET /value?item= GCATAGCCGAAAGGCTGC (((..(((....)))))) &field=folding enthalpy returns -12.6

GET /value?item= CACGTGAAAACGTG (((((....))))) &field=folding enthalpy returns -24.9

GET /value?item= GCTTAAACGAAAGTTAGC (((..(((....)))))) &field=folding enthalpy returns -16.2

GET /value?item= GAGGCCCCGAAAGGGCTC (((..(((....)))))) &field=folding enthalpy returns -14.1

GET /value?item= GCACTGCGAAAGCATGC (((.(((....)))))) &field=folding enthalpy returns -20.7

GET /value?item= GCGATCGCTCGC ((((....)))) &field=folding enthalpy returns -24.2

GET /value?item= GATAAGGCGAAAGCCATC (((..(((....)))))) &field=folding enthalpy returns -9.19

GET /value?item= GATCTGGAGCCAGATC ((((((....)))))) &field=folding enthalpy returns -37.6

GET /value?item= GATCTAAATTTAGATC ((((((....)))))) &field=folding enthalpy returns -32.3

GET /value?item= GGCCCCGAAAGGGGAGCC ((((((....)))..))) &field=folding enthalpy returns -12.8

GET /value?item= GGGTTCCCGAAAGGGCCC (((..(((....)))))) &field=folding enthalpy returns -18.6
